# SYSTEM UNDER TEST: T1, Human CD3εδ Fc heterodimer (Hu CD3ε Fc + CD3δ Fc-HIS) (human, UniProt P07766 22-126; P04234 22-100)
# T1 construct: range 22-126;range 22-100; Made in HEK 293 cells with a heterologous signal peptide; also called Hu CD3εδ-Fc; CD3εδ Fc-HIS heterodimer; not shown: Fc; Fc followed by HIS tag
# T1 sequence (P07766 22-126, stated change not applied, form in doubt, chain 1 of 2): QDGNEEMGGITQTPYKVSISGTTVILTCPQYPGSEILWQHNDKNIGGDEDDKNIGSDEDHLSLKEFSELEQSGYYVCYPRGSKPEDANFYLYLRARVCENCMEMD
# T1 sequence (P04234 22-100, stated change not applied, form in doubt, chain 2 of 2): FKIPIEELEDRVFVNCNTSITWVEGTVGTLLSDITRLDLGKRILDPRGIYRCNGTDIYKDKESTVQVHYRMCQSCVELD
# EXPERIMENT SUMMARY: BLI (Octet), Fab monovalent, pH 6.0
PROPERTY NAME: pKd
As a rule, pKd stands for the negative log10 of the concentration, concentration in M.

Answered examples (2):
# BINDER, RECORDED VALUE
rows = [
    ("Antibody No. V017 (ADI-76360) Fab (Fab, V domains shown, Fab by papain digestion of the IgG1) VH: QVQLVQSGAEVKKPGASVKVSCKASGFNIKDYYMHWVRQAPGQRLEWMGWIDLENADTIYDAKFQGRVTITRDTSASTAYMELSSLRSEDTAVYYCGRDAYGRYFYDVWGQGTLVTVSS VL: DIVMTQSPDSLAVSLGERATINCKSSQSLLNARTGKNYLAWYQQKPGQPPKLLIYWASTRESGVPDRFSGSGSGTDFTLTISSLQAEDVAVYYCKQSYSLRTFGGGTKVEIK", 7.24),
    ("Antibody No. V009 (ADI-70326) Fab (Fab, V domains shown, Fab by papain digestion of the IgG1) VH: QVQLVQSGAEVKKPGASVKVSCKASGFDIKDYYMHWVRQAPGQRLEWIGWIELENADTVYDAKFQGRVTITRDTSASTAYMELSSLRSEDTAVYYCARDAYGRYFYDVWGQGTLVTVSS VL: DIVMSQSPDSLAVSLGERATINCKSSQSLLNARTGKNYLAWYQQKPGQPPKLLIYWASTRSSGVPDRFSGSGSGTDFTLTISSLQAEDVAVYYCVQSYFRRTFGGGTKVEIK", 8.92),
]

Prompt: Recorded pKd of Antibody No. V018 (ADI-76361) Fab (Fab, V domains shown, Fab by papain digestion of the IgG1) VH: QVQLVQSGAEVKKPGASVKVSCKASGFDIKDYYMHWVRQAPGQRLEWMGWIDLEEGNTIYDAKFQGRVTITRDTSASTAYMELSSLRSEDTAVYYCARDAYGRYFYDVWGQGTLVTVSS VL: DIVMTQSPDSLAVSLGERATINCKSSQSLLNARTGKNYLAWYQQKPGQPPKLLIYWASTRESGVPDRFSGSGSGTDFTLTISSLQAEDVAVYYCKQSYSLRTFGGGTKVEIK , please.
Response: 7.48
